- System: wheat
- assay remarks: Test A postemergence
- Type: in vivo, Triticum aestivum
- assay conditions: postemergence, 125 g ai/ha, about 10 days, visual rating on 0 to 100 scale (0 no effect, 100 complete control)
- Description: […]
property: Wheat plant response rating
The reply should be a number, written without any unit.

Prompt: // query Wheat plant response rating value for entry CCCc1cc(C(=O)NCC(F)(F)F)nn1Cc1cc(C(F)(F)F)nn1C
Completion: 80

Prompt: // query Wheat plant response rating value for entry Cc1cc(C(=O)NC2CC2)nn1Cc1cccc(OC(F)(F)F)c1
Completion: 0

Prompt: // query Wheat plant response rating value for entry CCc1cc(C(=O)NC2CC2)nn1Cc1nc(C(F)(F)F)no1
Completion: 0

Prompt: // query Wheat plant response rating value for entry O=C(NCC(F)(F)F)c1cc(CCCl)n(Cc2ccnc(C(F)(F)F)c2)n1
Completion: 60

Prompt: // query Wheat plant response rating value for entry CCc1cc(C(=O)NOC(C)C)nn1Cc1ccnc(C(F)(F)F)c1
Completion: 80

Prompt: // query Wheat plant response rating value for entry CCCc1cc(C(=O)NCC(F)(F)F)nn1Oc1ccnc(C(F)(F)F)c1
Completion: 0

Prompt: // query Wheat plant response rating value for entry CCc1cc(C(=O)NCC(F)(F)F)nn1Cc1ccnc(OCC(F)(F)F)c1
Completion: 10

Prompt: // query Wheat plant response rating value for entry CCc1cc(C(=O)NC2CC2)nn1Oc1ccnc(C(F)(F)F)c1
Completion: 0

Prompt: // query Wheat plant response rating value for entry CCCNC(=O)c1cc(CCCl)n(Cc2ccnc(C(F)(F)F)c2)n1
Completion: 50

Prompt: // query Wheat plant response rating value for entry CCONC(=O)c1cc(CC)n(Cc2cc(C(F)(F)F)nn2CC)n1
Completion: 0

Prompt: // query Wheat plant response rating value for entry CCCCNC(=O)c1cc(CC)n(Oc2ccnc(C(F)(F)F)c2)n1
Completion: 0

Prompt: // query Wheat plant response rating value for entry CCc1cc(C(=O)NCC(F)(F)F)nn1Cc1nnc(C(F)(F)F)o1
Completion: 0

Prompt: // query Wheat plant response rating value for entry CCc1cc(-c2ccc(C(F)(F)F)cc2)nn1Cc1nc(C(F)(F)F)nn1C
Completion: 0

Prompt: // query Wheat plant response rating value for entry CCCc1cc(C(=O)Nc2ccc(F)cc2)nn1Cc1cc(C(F)(F)F)nn1C
Completion: 0

Prompt: // query Wheat plant response rating value for entry CCCNC(=O)c1cc(C)n(Oc2ccnc(C(F)(F)F)c2)n1
Completion: 0

Prompt: // query Wheat plant response rating value for entry O=C(NC1CC1)c1cc(Cl)n(Cc2cccc(C(F)(F)F)c2)n1
Completion: 0

Prompt: // query Wheat plant response rating value for entry CCOc1cc(C(=O)NCC(F)(F)F)nn1Cc1ccnc(C(F)(F)F)c1
Completion: 70

Prompt: // query Wheat plant response rating value for entry CCNC(=O)c1cc(C)n(Cc2cccc(OC(F)(F)F)c2)n1
Completion: 0
